target: FIH^K106A (Homo sapiens, UniProt Q9NWT6, K106A); construct: encoding for full-length FIH with an N-terminal His6 tag or for FIH (K106A) with an N-terminal His6 tag; His6 (N); host or cells: Escherichia coli BL21; assay: Affinity-based fluorescence polarization (FP) assay with the FIH K106A variant, without and with irradiation; type: binding; conditions: irradiation time 90 min; read-out: Binding affinity to FIH^K106A: Ki
Sequence (Q9NWT6 whole entry K106A): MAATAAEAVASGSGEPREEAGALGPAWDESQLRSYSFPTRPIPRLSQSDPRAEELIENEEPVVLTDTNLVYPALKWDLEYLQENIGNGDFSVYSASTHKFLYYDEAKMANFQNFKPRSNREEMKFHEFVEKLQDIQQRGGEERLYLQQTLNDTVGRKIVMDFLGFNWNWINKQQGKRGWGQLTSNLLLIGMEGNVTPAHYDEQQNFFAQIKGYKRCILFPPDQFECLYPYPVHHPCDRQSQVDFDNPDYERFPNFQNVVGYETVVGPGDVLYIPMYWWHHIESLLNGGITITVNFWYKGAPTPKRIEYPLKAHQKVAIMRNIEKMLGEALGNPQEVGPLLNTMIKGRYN
Measured Ki by item
A number alone suffices; assume nM.

smiles	readout-unit	meas-value
O=C(O)CNC(=O)c1ncc(-c2cc(-c3cccc([N+](=O)[O-])c3)no2)cc1O	nM	264
O=C(O)CNC(=O)c1ncc(-c2cc(-c3ccc(CO)cc3)no2)cc1O	nM	565

Here's the next entry for you.
Identify Ki associated with the compound O=C(O)CNC(=O)c1ncc(-c2cc(-c3ccc(CO)c([N+](=O)[O-])c3)no2)cc1O
418

----------
Target: FIH^WT (Homo sapiens)
Construct: pET28a vectors encoding for full-length FIH with an N-terminal His6 tag; His6 (N); host or cells: Escherichia coli BL21
Test: Affinity-based fluorescence polarization (FP) assay with FIH WT, without and with 365 nm irradiation
Details: irradiation time 120 min; read-out: Binding affinity to FIH^WT: Ki
From the text: We also performed a reported affinity-based fluorescence polarization (FP) assay (Figure S6) , under light activation to measure the binding affinity of NBA-ZG-2291 to FIH (Figure A). […] These observations are consistent with the intact protein MS analyzes. We also evaluated the binding affinities of two negative controls to FIH, which were designed not to covalently react with Lys106. 4 (A) Light-induced click conjugation between NBA-ZG-2291 and FIH protein. […]
outcome-measure: Ki
The answer consists of two parts: a number and, after it, its unit.

Here is how some compounds turned out for Ki.
smiles	meas-value
O=C(O)CNC(=O)c1ncc(-c2cc(-c3ccc(CO)c([N+](=O)[O-])c3)no2)cc1O	32.1 nM
O=C(O)CNC(=O)c1ncc(-c2cc(-c3cccc([N+](=O)[O-])c3)no2)cc1O	428 nM

Here's the next entry for you.
Identify Ki associated with the compound O=C(O)CNC(=O)c1ncc(-c2cc(-c3ccc(CO)cc3)no2)cc1O
786 nM

----------
molecular target: FIH^WT (Homo sapiens, UniProt Q9NWT6); construct: pET28a vectors encoding for full-length FIH with an N-terminal His6 tag; His6 (N); host or cells: Escherichia coli BL21; assay: Affinity-based fluorescence polarization (FP) assay with FIH WT, without and with 365 nm irradiation; details: irradiation time 0 min; read-out: Binding affinity to FIH^WT: Ki
Sequence (Q9NWT6 whole entry): as the sequence (Q9NWT6 whole entry K106A) above, with A106K counted along it
Measured Ki by item
A number alone suffices; assume nM.

Here is how some compounds turned out for Ki.
smiles	readout-unit	meas-value
O=C(O)CNC(=O)c1ncc(-c2cc(-c3ccc(CO)cc3)no2)cc1O	nM	742
O=C(O)CNC(=O)c1ncc(-c2cc(-c3cccc([N+](=O)[O-])c3)no2)cc1O	nM	423

Here's the next entry for you.
Identify Ki associated with the compound O=C(O)CNC(=O)c1ncc(-c2cc(-c3ccc(CO)c([N+](=O)[O-])c3)no2)cc1O
414

----------
molecular target: FIH^K106A (Homo sapiens, UniProt Q9NWT6, K106A); construct: encoding for full-length FIH with an N-terminal His6 tag or for FIH (K106A) with an N-terminal His6 tag; His6 (N); host or cells: Escherichia coli BL21; test: Affinity-based fluorescence polarization (FP) assay with the FIH K106A variant, without and with irradiation; assay type: binding; conditions: irradiation time 120 min; read-out: Binding affinity to FIH^K106A: Ki
outcome-measure: pKi
As a rule, pKi stands for the negative log10 of the concentration, concentration in M.

Here is how some compounds turned out for pKi.
smiles	pKi
O=C(O)CNC(=O)c1ncc(-c2cc(-c3ccc(CO)cc3)no2)cc1O	6.26
O=C(O)CNC(=O)c1ncc(-c2cc(-c3ccc(CO)c([N+](=O)[O-])c3)no2)cc1O	6.37

Here's the next entry for you.
Tell me its pKi on FIH^K106A (Homo sapiens, UniProt Q9NWT6, K106A): O=C(O)CNC(=O)c1ncc(-c2cc(-c3cccc([N+](=O)[O-])c3)no2)cc1O
6.57
